# system: bacterial RNAP (Escherichia coli, UniProt P0A8T7+P0A8V2)
# Sequence (P0A7Z4 whole entry): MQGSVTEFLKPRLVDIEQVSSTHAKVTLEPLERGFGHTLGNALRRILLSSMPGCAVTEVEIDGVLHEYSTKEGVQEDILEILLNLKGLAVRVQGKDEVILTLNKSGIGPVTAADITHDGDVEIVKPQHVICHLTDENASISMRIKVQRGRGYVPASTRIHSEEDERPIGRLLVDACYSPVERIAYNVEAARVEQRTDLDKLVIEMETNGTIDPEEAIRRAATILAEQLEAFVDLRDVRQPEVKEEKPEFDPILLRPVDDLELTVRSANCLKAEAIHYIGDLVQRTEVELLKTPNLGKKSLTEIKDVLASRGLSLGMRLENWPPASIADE
# Sequence (P0A8V2 whole entry): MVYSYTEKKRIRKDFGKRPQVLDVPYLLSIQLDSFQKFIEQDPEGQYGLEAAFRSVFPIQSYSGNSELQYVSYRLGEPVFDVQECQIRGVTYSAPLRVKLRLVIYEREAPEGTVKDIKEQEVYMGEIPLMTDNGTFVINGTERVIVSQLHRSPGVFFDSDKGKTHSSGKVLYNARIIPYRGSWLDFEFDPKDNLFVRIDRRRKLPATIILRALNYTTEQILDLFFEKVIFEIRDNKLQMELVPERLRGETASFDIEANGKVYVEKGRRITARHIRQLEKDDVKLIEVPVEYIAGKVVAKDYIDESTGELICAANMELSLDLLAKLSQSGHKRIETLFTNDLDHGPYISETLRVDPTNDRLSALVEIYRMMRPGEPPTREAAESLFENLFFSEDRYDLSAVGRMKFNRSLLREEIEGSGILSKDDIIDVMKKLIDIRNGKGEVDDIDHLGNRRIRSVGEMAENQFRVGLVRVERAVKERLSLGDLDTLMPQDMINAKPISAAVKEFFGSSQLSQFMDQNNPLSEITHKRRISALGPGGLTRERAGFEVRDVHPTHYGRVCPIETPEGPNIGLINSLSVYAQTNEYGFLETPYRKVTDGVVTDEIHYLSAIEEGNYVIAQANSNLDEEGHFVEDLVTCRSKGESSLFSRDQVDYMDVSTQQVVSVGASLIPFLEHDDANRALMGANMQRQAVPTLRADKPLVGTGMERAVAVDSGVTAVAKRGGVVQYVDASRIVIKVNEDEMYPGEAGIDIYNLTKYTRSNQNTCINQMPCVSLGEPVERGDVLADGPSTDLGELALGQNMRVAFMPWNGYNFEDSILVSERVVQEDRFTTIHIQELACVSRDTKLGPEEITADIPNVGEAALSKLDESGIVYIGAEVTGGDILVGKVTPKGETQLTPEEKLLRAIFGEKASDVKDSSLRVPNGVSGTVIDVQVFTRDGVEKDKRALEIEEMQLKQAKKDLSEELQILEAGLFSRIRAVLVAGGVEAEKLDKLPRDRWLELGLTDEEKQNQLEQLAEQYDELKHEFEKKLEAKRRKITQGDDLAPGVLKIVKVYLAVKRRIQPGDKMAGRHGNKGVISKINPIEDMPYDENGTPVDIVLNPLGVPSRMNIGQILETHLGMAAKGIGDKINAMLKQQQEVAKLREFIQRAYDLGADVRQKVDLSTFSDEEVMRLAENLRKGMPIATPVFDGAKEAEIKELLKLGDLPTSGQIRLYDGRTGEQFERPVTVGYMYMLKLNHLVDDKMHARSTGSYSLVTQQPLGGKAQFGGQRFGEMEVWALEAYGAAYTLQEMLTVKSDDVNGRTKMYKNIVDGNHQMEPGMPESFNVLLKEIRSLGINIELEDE
# Sequence (P0A8T7 whole entry): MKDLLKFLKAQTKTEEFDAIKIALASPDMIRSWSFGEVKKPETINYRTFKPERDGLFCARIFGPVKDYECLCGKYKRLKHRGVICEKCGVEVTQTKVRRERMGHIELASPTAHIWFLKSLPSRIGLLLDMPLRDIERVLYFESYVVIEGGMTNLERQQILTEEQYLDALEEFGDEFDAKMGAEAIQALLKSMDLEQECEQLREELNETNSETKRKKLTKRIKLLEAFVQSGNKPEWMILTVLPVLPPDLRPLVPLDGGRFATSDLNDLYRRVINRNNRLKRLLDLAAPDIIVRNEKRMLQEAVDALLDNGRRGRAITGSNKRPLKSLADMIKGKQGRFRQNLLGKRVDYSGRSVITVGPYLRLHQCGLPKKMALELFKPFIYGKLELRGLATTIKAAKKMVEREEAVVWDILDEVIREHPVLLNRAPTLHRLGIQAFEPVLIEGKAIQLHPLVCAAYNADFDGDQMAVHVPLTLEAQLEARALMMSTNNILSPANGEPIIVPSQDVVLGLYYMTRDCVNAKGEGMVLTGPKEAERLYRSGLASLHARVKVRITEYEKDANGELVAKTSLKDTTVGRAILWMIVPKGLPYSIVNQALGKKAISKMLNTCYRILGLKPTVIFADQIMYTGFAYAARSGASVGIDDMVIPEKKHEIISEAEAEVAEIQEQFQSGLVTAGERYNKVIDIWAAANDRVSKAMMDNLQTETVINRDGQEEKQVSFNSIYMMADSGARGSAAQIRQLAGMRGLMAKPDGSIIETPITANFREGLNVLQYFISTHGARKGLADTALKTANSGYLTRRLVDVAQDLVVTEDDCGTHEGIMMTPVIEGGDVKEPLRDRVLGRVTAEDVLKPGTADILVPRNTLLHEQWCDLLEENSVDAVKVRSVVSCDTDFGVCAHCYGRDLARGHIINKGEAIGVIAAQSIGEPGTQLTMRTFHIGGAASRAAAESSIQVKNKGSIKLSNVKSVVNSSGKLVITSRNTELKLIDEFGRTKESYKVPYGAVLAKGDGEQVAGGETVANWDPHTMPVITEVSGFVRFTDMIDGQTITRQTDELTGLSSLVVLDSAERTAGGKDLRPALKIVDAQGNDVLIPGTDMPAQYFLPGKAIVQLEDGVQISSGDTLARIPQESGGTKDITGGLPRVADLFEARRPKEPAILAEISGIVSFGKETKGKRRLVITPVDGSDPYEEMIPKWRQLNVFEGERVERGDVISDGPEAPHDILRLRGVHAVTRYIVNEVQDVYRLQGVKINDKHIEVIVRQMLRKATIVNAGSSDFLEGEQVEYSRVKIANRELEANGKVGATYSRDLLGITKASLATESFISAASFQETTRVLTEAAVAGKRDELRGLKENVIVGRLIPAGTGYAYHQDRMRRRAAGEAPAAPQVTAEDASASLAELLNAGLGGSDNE
# Sequence (P00579 whole entry, further chain): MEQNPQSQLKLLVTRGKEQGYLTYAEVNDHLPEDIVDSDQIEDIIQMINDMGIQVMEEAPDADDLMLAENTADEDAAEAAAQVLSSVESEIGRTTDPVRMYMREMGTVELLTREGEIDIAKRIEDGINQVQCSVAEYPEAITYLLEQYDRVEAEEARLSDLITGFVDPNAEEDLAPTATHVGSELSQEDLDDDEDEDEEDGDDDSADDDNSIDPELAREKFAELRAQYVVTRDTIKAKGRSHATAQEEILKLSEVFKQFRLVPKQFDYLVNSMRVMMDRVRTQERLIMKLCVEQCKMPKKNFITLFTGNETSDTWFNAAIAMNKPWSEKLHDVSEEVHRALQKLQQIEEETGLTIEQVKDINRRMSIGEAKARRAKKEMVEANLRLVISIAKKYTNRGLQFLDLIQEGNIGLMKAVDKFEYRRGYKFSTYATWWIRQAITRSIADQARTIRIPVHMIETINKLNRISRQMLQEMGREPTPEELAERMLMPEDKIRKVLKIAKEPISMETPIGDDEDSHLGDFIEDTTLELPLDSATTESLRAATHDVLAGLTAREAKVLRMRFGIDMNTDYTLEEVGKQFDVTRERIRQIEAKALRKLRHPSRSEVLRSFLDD
# Sequence (P0A800 2-91, further chain): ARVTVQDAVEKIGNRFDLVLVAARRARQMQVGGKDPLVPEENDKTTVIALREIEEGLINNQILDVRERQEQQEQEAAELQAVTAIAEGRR
# measurementProtocol: RNAP-inhibitory activity in vitro
# experimentalConditions: read-out: IC50, inhibition of bacterial RNAP
valueType: IC50 (nM)

| structure | valueType | numericValue |
| --- | --- | --- |
| NC(=O)CC[C@@H](C(=O)NC[C@H]1O[C@@H](c2c[nH]c(=O)[nH]c2=O)[C@H](O)[C@@H]1O)N(O)C(=O)CN=C(N)N | IC50 | 100 |

Data credit: paper PMC5542026
